All values here come from BindingDB's records for doi:10.1111/j.1747-0285.2007.00514.x.

pKi: −log10 of the molar value.
Read-out record for HIV-1 protease (Human immunodeficiency virus, UniProt O90783): pKi
measured-parameter: pKi

Below, each entry is followed by its recorded pKi result.
INSERT INTO results (molecule, measured_parameter, test_result) VALUES
  ('CNC(=O)CCC(=O)N[C@@H](Cc1ccccc1)[C@H](O)CN(C[C@@H](C)O)S(=O)(=O)c1cccc(OC)c1', 'pKi', 6.12),
  ('CC(=N[C@H]1c2ccccc2C[C@H]1O)[C@@H](Cc1ccccc1)C[C@H](O)CN1CCN(Cc2cccnc2)C[C@H]1C(=O)NC(C)(C)C', 'pKi', 9.74);

a = COc1cccc(S(=O)(=O)N(CC2CCCO2)C[C@@H](O)[C@H](Cc2ccccc2)NC(=O)c2ccnc(OC)c2)c1 (some centres undefined)
b = C[C@@H](O)CN(C[C@@H](O)[C@H](Cc1ccccc1)NC(=O)CC1C=CCC1)S(=O)(=O)c1ccco1 (some centres undefined)
**Query** Lab notebook, comparison: a versus b , higher pKi goes to which? Pick one and reply with its label.
**Result** a
